Biological target: Gal4 DNA binding domain fused to the LBD of LXRα in HEK293 cells (Homo sapiens (Human), UniProt Q13133)
Sequence (Q13133 209-447): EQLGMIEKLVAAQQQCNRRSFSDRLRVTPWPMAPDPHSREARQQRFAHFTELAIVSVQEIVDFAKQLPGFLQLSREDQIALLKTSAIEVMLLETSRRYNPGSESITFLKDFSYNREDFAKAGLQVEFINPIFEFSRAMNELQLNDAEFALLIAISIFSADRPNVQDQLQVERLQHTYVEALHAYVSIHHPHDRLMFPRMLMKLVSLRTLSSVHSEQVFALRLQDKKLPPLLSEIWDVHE
Assay: LXR luciferase transcriptional reporter gene assay, agonist mode, LXRα
Assay type: cell-based
# Cell LXRα efficacy per record follows

Compound	Recorded value
Cc1nnc(-c2ccc(N3CCN(c4ncc(CO)c(C(F)(F)F)n4)[C@H](C(C)C)C3)cc2S(C)(=O)=O)o1	3283 (31) %
CC(C)[C@H]1CC[C@H](CN2CCN(c3cccc(S(C)(=O)=O)c3)C[C@@H]2c2ccccc2)CC1 (single isomer, unassigned)	1658 (31) %
CC1(C)CCC(CN2CCN(c3cccc(S(C)(=O)=O)c3)C[C@@H]2c2ccccc2)CC1	279 (61) %
C[C@H](c1ccc(C(F)(F)F)cc1)N1CCN(c2cccc(S(C)(=O)=O)c2)C[C@@H]1c1ccccc1 (single isomer, unassigned)	4598 (45) %
CC(C)[C@@H]1CN(c2ccc(F)c(S(C)(=O)=O)c2)CCN1c1ncc(C(F)(F)F)c(C(C)(C)O)n1	327 (96) %

We now examine a further compound.
Given the entry CC(C)[C@@H]1CN(c2ccc(CO)c(S(C)(=O)=O)c2)CCN1c1ncc(C(C)(C)C#N)c(C(F)(F)F)n1 , report its measured Cell LXRα efficacy.
174 (44) %

Every entry's value here was drawn from patent US10144715B2.
